test system: NCI-H23; assay: relative viability (nuclei count vs DMSO), 5 days (fraction); higher = more cells survive; details: first compound 0.05 µM
Category scheme (relative viability): bottom bin: < 0.2; middle bin: ≥ 0.2 and < 0.5; top bin: ≥ 0.5

Qu. Exercise: read the entry Nc1ccn([C@@H]2O[C@H](CO)[C@@H](O)[C@@H]2O)c(=O)n1 [Cytarabine] + C[C@]1(O)C[C@@H](c2nc(-c3ccc4ccc(-c5ccccc5)nc4c3)c3c(N)nccn32)C1 [Linsitinib] (partner 1 µM) and state which class it falls under.
Ans. middle bin

Qu. What do you have for COc1cc2nccc(Oc3ccc(NC(=O)Nc4cc(C)on4)c(Cl)c3)c2cc1OC [Tivozanib] + CCNC(=O)c1noc(-c2cc(C(C)C)c(O)cc2O)c1-c1ccc(CN2CCOCC2)cc1 [Luminespib] (partner 0.01 µM) ?
Ans. bottom bin

Qu. What do you have for COc1cc2nccc(Oc3ccc(NC(=O)Nc4cc(C)on4)c(Cl)c3)c2cc1OC [Tivozanib] + O=C(c1cc(Cc2n[nH]c(=O)c3ccccc23)ccc1F)N1CCN(C(=O)C2CC2)CC1 [Olaparib] (partner 8 µM) ?
Ans. middle bin

Qu. What do you have for Nc1ccn([C@@H]2O[C@H](CO)[C@@H](O)[C@@H]2O)c(=O)n1 [Cytarabine] + Cc1nc(NC(=O)N2CCC[C@H]2C(N)=O)sc1-c1ccnc(C(C)(C)C(F)(F)F)c1 [Alpelisib] (partner 2 µM) ?
Ans. middle bin

Qu. What do you have for Nc1ccn([C@@H]2O[C@H](CO)[C@@H](O)[C@@H]2O)c(=O)n1 [Cytarabine] + CC(=O)Nc1cccc(-n2c(=O)n(C3CC3)c(=O)c3c(Nc4ccc(I)cc4F)n(C)c(=O)c(C)c32)c1 [Trametinib] (partner 0.02 µM) ?
Ans. middle bin

Qu. What do you have for COc1cc2nccc(Oc3ccc(NC(=O)Nc4cc(C)on4)c(Cl)c3)c2cc1OC [Tivozanib] + COc1cc2c(Oc3ccc(NC(=O)C4(C(=O)Nc5ccc(F)cc5)CC4)cc3F)ccnc2cc1OCCCN1CCOCC1 [Foretinib] (partner 0.25 µM) ?
Ans. top bin

====

test system: NCI-H1395; assay: relative viability (nuclei count vs DMSO), 5 days (fraction); higher = more cells survive; settings: first compound 500 µM
Doc: threshold 0.6 (exclusive). Items with relative viability beneath it return criterion met; others return criterion not met.

Qu. Check if relative viability falls below 0.6 for O=C(O)CCCCC(CCSCc1ccccc1)SCc1ccccc1 (stereo not drawn) [CPI-613] + NC(=O)Nc1cc(-c2cccc(F)c2)sc1C(=O)N[C@H]1CCCNC1 [AZD7762] (partner 0.2 µM) .
Ans. criterion met

Qu. What do you have for O=C(O)CCCCC(CCSCc1ccccc1)SCc1ccccc1 (stereo not drawn) [CPI-613] + COc1cc2c(Oc3ccc(NC(=O)C4(C(=O)Nc5ccc(F)cc5)CC4)cc3F)ccnc2cc1OCCCN1CCOCC1 [Foretinib] (partner 0.25 µM) ?
Ans. criterion not met

Qu. What do you have for O=C(O)CCCCC(CCSCc1ccccc1)SCc1ccccc1 (stereo not drawn) [CPI-613] + Cc1nc(Nc2ncc(C(=O)Nc3c(C)cccc3Cl)s2)cc(N2CCN(CCO)CC2)n1 [Dasatinib] (partner 0.075 µM) ?
Ans. criterion met

Qu. What do you have for O=C(O)CCCCC(CCSCc1ccccc1)SCc1ccccc1 (stereo not drawn) [CPI-613] + CS(=O)(=O)CCNCc1ccc(-c2ccc3ncnc(Nc4ccc(OCc5cccc(F)c5)c(Cl)c4)c3c2)o1 [Lapatinib] (partner 2 µM) ?
Ans. criterion not met

Qu. What do you have for O=C(O)CCCCC(CCSCc1ccccc1)SCc1ccccc1 (stereo not drawn) [CPI-613] + N=C(N)NC(=N)NCCc1ccccc1 [Phenformin] (partner 250 µM) ?
Ans. criterion met

Qu. What do you have for O=C(O)CCCCC(CCSCc1ccccc1)SCc1ccccc1 (stereo not drawn) [CPI-613] + COc1cccc2cc(-c3nc([C@H]4CC[C@H](C(=O)O)CC4)n4ncnc(N)c34)[nH]c12 [OSI-027] (partner 0.5 µM) ?
Ans. criterion met

Qu. What do you have for O=C(O)CCCCC(CCSCc1ccccc1)SCc1ccccc1 (stereo not drawn) [CPI-613] + CC(=O)c1c(C)c2cnc(Nc3ccc(N4CCNCC4)cn3)nc2n(C2CCCC2)c1=O [Palbociclib] (partner 0.5 µM) ?
Ans. criterion met
